assayProcedure: excess molar enthalpy (molar enthalpy of mixing); xn = mol fraction of the nth substance listed
runParameters: 298.15 K; 101 kPa; Liquid; Flow calorimetry; x2 = 0.45
quantity: excess molar enthalpy (kcal/mol)

[
  {
    "compound": "CCCC(C)=O [pentan-2-one] + C1CCOCC1",
    "excess molar enthalpy, kcal/mol": 0.0209
  }
]

P. O=C1CCCCC1 [cyclohexanone] + C1CCOCC1
Q. CCCCCC(C)=O [2-heptanone] + C1CCOCC1
R. O=C1CCCC1 [cyclopentanone] + C1CCOCC1
Put the items in order so that reported excess molar enthalpy rises from first to last. A complete answer lists every label in the requested sequence.
Q, P, R
